From: PubChem BioAssay (NCI)

Listed below: TGI values for each entry.
# System: MALME-3M melanoma
# Test description: NCI tumour cell line growth inhibition, 48 h
Reply numerically in µM, unit not repeated.

Compound	Target desc	Measured property	Measurement unit	Measured result
CCCCCCCCCCCCCCNC(=O)Nc1ccc(Cl)c(Cl)c1	MALME-3M melanoma	TGI	µM	4.59

# get_value(readout='TGI', item= CC(=O)NC1C(O[C@H]2C[C@H]3[C@@H]4CC=C5C[C@@H](O)CC[C@]5(C)[C@H]4CC[C@]3(C)[C@H]2[C@H](C)C(=O)CCC(C)C)OCC(O)C1O (some centres not stated) )
9.78

Bench note: what TGI did CC1NOC(=O)C1N=Nc1ccc(Cl)cc1Cl (configuration not stated) show?
56.8

State the recorded TGI for this entry: N#Cc1c(NC(=O)C(F)(F)F)sc2c3c(=O)c4ccccc4c(=O)c=3oc3ccccc3c12
13.1

# query: TGI of entry COc1cc(/C=C/c2cc(/C=C/c3ccc(O)c(OC)c3)n(C(=O)c3ccccc3Br)n2)ccc1O
43.6

I'd like to know its TGI. The compound in question is COC1(OC)c2occc2C(=N)c2ccc(=O)oc21
33.5

State the recorded TGI for this entry: OC(c1ccccc1Br)(c1ccccc1Br)C(F)(F)F
52.3

* * *

# Tested on: DU-145 prostate
# Test description: NCI tumour cell line growth inhibition, 48 h
Reported TGI values for a set of compounds
Give the value in µM but do not write µM after it.

Sample records with TGI:
> print(dat)
                                   compound  measured.result
1  Cc1c(C)c(S(=O)(=O)N(CCCCN)OCCCN)c(C)c2c1OC(C)(C)CC2             57.7
2  COc1cc(/C=C/c2cc(/C=C/c3ccc(O)c(OC)c3)n(C(=O)c3ccccc3Br)n2)ccc1O             34.8
3  CCSCC1CC(O)(c2ccccc2)C(c2ccccc2)C(c2ccc(F)cc2)O1 (stereo not given)             6.99
4  COc1ccc(CCCCNCc2cccc(CNCCCCc3ccc(OC)cc3)c2)cc1             3.54
5  CCOC(=O)C1(C/C=C\CBr)CCCC1=O (stereo not given)             73.2

Consider the record given below.
May I ask what TGI has been recorded for Cc1ccc(S[C@@](C=O)(NC(=O)OCc2ccccc2)C(F)(F)F)cc1 ?
47.4

* * *

# System: SK-MEL-2 melanoma
# Test description: NCI tumour cell line growth inhibition, 48 h
Heads up, the class ranges for TGI are bottom bin: < 6 µM; middle bin: ≥ 6 µM and < 60 µM; top bin: ≥ 60 µM

Form: Item = CCN(CC)c1ccc2nc3ccc(=[N+](CC)CC)cc-3oc2c1 ; Class = ?
bottom bin

Returns: class label. Input: CC1NOC(=O)C1N=Nc1ccc(Cl)cc1Cl (configuration not stated)
top bin

Form field 'band' for CCOC(=O)C1=C(NC)OCC1=O
top bin

Where would S=C1Cc2c(-c3ccccc3)cc(-c3cccc(Cl)c3)nc2-c2ccccc2N1 land among the classes by reported TGI?
middle bin

Lab note: which band did COC1(OC)c2occc2C(=N)c2ccc(=O)oc21 land in?
top bin

Using the reported TGI, which band applies to COC(=O)c1c(C)cccc1/C=C1\Cc2ccc(C)c(C)c2C1=O ?
top bin

Exercise: read the entry O=[N+]([O-])c1cccc2nc3ccccc3c(NCCCCCNc3c4ccccc4nc4cccc([N+](=O)[O-])c34)c12 and state which class it falls under.
bottom bin

Would you mind sorting OC(c1ccccc1Br)(c1ccccc1Br)C(F)(F)F into the appropriate category?
middle bin

Note: place this compound into its band. Item: CC(=O)Nc1ccc(C2CC(c3ccc([N+](=O)[O-])cc3)=Nc3ccccc3S2=O)cc1 (configuration not stated)
top bin

Assign a category based on measured TGI for COc1ccc2nc3c(c(N)c2c1)C1CCC3C1(C)C (configuration not stated) and give only the class name.
top bin

* * *

# System: SK-MEL-5 melanoma
# Test description: NCI tumour cell line growth inhibition, 48 h
Given measured TGI, output Met if it is greater than or equal to 40 µM and Not met if not.

# example entries with known answers
Molecule	Qualitative label
CC1NOC(=O)C1N=Nc1ccc(Cl)cc1Cl (stereo not drawn)	Met
CC1=NN(c2nc(N)nc(C(C)Cl)n2)C(C)(C)C1 (stereo not drawn)	Met
CC(=O)OCC(=O)[C@@]1(O)CC[C@H]2[C@@H]3C[C@H](C)C4=CC(=O)C=C[C@]4(C)[C@@]3(F)[C@@H](O)C[C@@]21C	Met
COc1ccc(OC)c2sc(N3C(=O)/C(=C/c4cccc(Oc5ccccc5)c4)N=C3c3ccccc3)nc12	Met
CC(=O)Oc1c(C(=O)[O-])cc(C(C)C)cc1C(C)C.CC(=O)Oc1c(C(=O)[O-])cc(C(C)C)cc1C(C)C.CC(=O)Oc1c(C(=O)[O-])cc(C(C)C)cc1C(C)C.CC(=O)Oc1c(C(=O)[O-])cc(C(C)C)cc1C(C)C.[Cu+2].[Cu+2]	Not met

Tell me whether TGI is at least 40 µM here: CCCCS(=O)c1sc2nc(-c3cccs3)cc(-c3ccccc3)c2c1N (stereo not drawn)
Not met

Please check the record C(=Nc1nc(SCc2ccccc2)nc2[nH]ncc12)c1cccs1 and state if its TGI is at or above 40 µM.
Not met

TGI >= 40 µM for CCN1CCC(O)(c2ccc([N+](=O)[O-])cc2)C(C(=O)c2ccc([N+](=O)[O-])cc2)C1 (stereo not drawn) ?
Not met

* * *

# Tested on: MDA-MB-435
# Test description: NCI tumour cell line growth inhibition, 48 h
Measured property: TGI

These solved cases illustrate the format of a correct answer.
> print(dat)
                                   compound  measured.result
1   CSCCC(C(=O)O)N(C)C (stereo unspecified)         > 100 µM
2  Cc1c(C)c2c(c(N)c1C#N)C(=O)N(Cc1ccc(S(N)(=O)=O)cc1)C2=O         > 100 µM

I am curious: what TGI value has been reported for C[C@@H]1CC[C@]2(C)C3(C)CC[C@]2(OC3=O)[C@@]12CC(c1ccoc1)OC2=O (stereo partly specified) ?
56.4 µM

Quick check: TGI of COc1ccccc1Oc1nccc(-c2c(-c3ccc(F)cc3)ncn2C2CCNCC2)n1 ?
> 25 µM

Please look up its TGI: N#Cc1c(NC(=O)C(F)(F)F)sc2c3c(=O)c4ccccc4c(=O)c=3oc3ccccc3c12
41.4 µM

So what's the measured TGI for this one? CSc1nncc(-c2cc3c(c(SC)n2)CCCC3)n1
> 100 µM

* * *

# Tested on: SK-MEL-28 melanoma
# Test description: NCI tumour cell line growth inhibition, 48 h
Measured property: TGI

> print(dat)
                                   compound  measured.result
1  COC(=O)c1c(C)cccc1/C=C1\Cc2ccc(C)c(C)c2C1=O         > 100 µM
2  NNC(=O)C(=O)NN=C(C(Cl)(Cl)CO)C(Cl)(Cl)CO          97.9 µM
3                    N#Cc1sc2nc3ccccc3n2c1N         > 100 µM

I'd like to know its TGI. The compound in question is CCCC(=O)CC(C)C(=O)C(=O)NC12CC3CC(CC(C3)C1)C2 (stereo not given)
> 100 µM

Need TGI, item CN=c1sc2c(n1C)C(=O)c1ccccc1C2=O
3.61 µM

What value of TGI has been recorded for this entry: COc1ccc(-c2cc(/C=C/C(=O)c3ccc(N)cc3)[nH]n2)cc1OC
5.66 µM

Give its TGI value. Item: O=c1[nH]c(N/N=C\C(O)C(O)C(O)C(O)CO)nc2ccccc12 (stereo not given)
> 100 µM

Could you share which TGI value was measured for Cc1cc(Br)c(NC(=O)c2c(-c3c(Cl)cccc3Cl)noc2C)c(Br)c1 ?
> 100 µM

So what's the measured TGI for this one? Oc1ccc(C(=C(Br)c2ccccc2)c2ccc(O)cc2)cc1
24 µM

Request the reported TGI associated with N#Cc1ccccc1OCCOc1ccccc1C#N
> 100 µM

Can you share its TGI? I mean this compound: Fc1ccc(NC(c2ccc(F)cc2)C2CCN(CCCCc3ccccc3)CC2)cc1 (stereo not given)
3.28 µM

# query: TGI of entry COCCOC1=C(Cl)C(=O)c2ccccc2C1=O
10.9 µM

Entry under review: CN1CCOC(C(NC(=O)c2ccccc2)c2ccccc2)C1=O (stereo not given) . Reported TGI?
> 100 µM

Form field: reported TGI of O=c1c(-c2ccccc2)nnc2n(Cc3ccccc3)c3ccccc3n12
> 100 µM

Data request, read-out TGI, for C=C(CN1CCc2[nH]c3ccc(F)cc3c2C1)c1ccc(C(=O)Nc2ccccc2N)cc1
26.2 µM

Can you look up the measured TGI of O=C1N[C@@H]2CCCC[C@@H]2C12CCCCC2 for me?
> 100 µM

Which value of TGI has been reported for COc1ccc2ccccc2c1C1=NC(C)(C)CO1 in the records?
> 100 µM
